Where do the numbers come from? From patent US20180282310A1.

# protocol: Estimated solubility in solvents at room temperature (stepwise solvent addition)
# Format: physicochemical
# condition_description: organic solvent or mixture, thermodynamic from solid; EtOAc, room temperature
metric: solubility

Consider the compound shown here: Cc1cc(-c2ccnc(Nc3cnn(C)c3)n2)ccc1CNC(=O)N1CC(OC(C)C)C1 What is its recorded solubility?
1400 to 1500 µg/mL

====

# protocol: Estimated solubility in solvents at room temperature (stepwise solvent addition)
# Type: physicochemical
# condition_description: 20 °C, organic solvent or mixture, thermodynamic from solid; THF, room temperature (RT, 20±3° C.)
# Method: Approximately 2 mg solids were added into a 3-mL glass vial. Solvents in Table 39 were then added step wise (100 μL per step) into the vials until the solids were dissolved or a total volume of 2 mL was reached. Results summarized in Table 39 were used to guide the solvent selection in polymorph screening. […] Approximately 2 mg solids were added into a 3-mL glass vial. […]
metric: solubility

Using the record for Cc1cc(-c2ccnc(Nc3cnn(C)c3)n2)ccc1CNC(=O)N1CC(OC(C)C)C1.Cl , report its solubility.
< 900 µg/mL
